molecular target: MMP-13CD (catalytic domain of collagenase 3) (Homo sapiens); experiment: Thiopeptolide substrate hydrolysis assay, MMP-13CD; type: biochemical; conditions: IC50 (μM) Versus Certain MMPs: MMP-13 CD, thiopeptolide substrate, HEPES pH 7.0, 22° C.
Counter-ions that a name gives are not always drawn.
Assay metric: IC50 (µM)

1 = O=C(NCc1ccccc1)c1cn2c(=O)n(Cc3ccccc3)c(=O)cc2s1 [Example 4]
2 = Cc1c(=O)n(Cc2ccccc2)c(=O)n2cc(C(=O)NCc3ccccn3)sc12 [Example 47, hydrochloride]
3 = C=C(C)Cn1c(=O)c(C)c2sc(C(=O)NCc3ccc(F)cc3)cn2c1=O [Example 93]
4 = COc1cc(CNC(=O)c2cn3c(=O)n(Cc4ccccc4)c(=O)c(C)c3s2)ccn1 [Example 37a, hydrochloride]
Challenge: Put the above entries in order of falling IC50. // respond by listing labels in the order requested
Response given: 2, 3, 1, 4

---

Measured IC50 values are reported for all entries that follow.
target: MMP-14CD (catalytic domain of MMP-14) (Homo sapiens); assay: Thiopeptolide substrate hydrolysis assay, MMP-14CD; assay type: biochemical; conditions: HEPES pH 7.0, 22° C., read-out: IC50 (μM) Versus Certain MMPs: MMP-14 CD
Structures can show the parent of a compound that is named as a salt.

Solved entries:
>  <Molecule>
COC(=O)c1ccc(Cn2c(=O)c(C)c3sc(C(=O)NCc4ccc(F)cc4)cn3c2=O)cc1Cl

>  <Assay value>
> 30 µM

$$$$
>  <Molecule>
O=C(OCc1ccncc1)c1cn2c(=O)n(Cc3ccccc3)c(=O)cc2s1 [Example 3, hydrochloride]

>  <Assay value>
> 100 µM

$$$$
>  <Molecule>
O=C(NCc1ccc(Cl)c(Cl)c1)c1cn2c(=O)n(Cc3ccc(Cl)cc3)c(=O)cc2s1

>  <Assay value>
> 100 µM

$$$$
>  <Molecule>
Cc1nc(Cn2c(=O)c(C)c3sc(C(=O)NCc4ccc(F)cc4)cn3c2=O)cs1

>  <Assay value>
> 100 µM

$$$$
>  <Molecule>
Cc1c(=O)n(Cc2ccc(C#N)cc2)c(=O)n2cc(C(=O)NCc3ccncc3)sc12 [Example 85, hydrochloride]

>  <Assay value>
> 30 µM

$$$$

Challenge: Could you tell me which IC50 is on file for O=C(NCc1ccccc1)c1cn2c(=O)n(Cc3ccncc3)c(=O)cc2s1 [Example 15, hydrochloride] ?
Response given: > 100 µM

Challenge: Also, `Cc1cccc(CNC(=O)c2cn3c(=O)n(Cc4ccccc4)c(=O)c(C)c3s2)c1` please.
Response given: > 100 µM

Challenge: Could you do the same for `COC(=O)c1ccc(Cn2c(=O)c(C)c3sc(C(=O)NCc4ccc(OC)cc4)cn3c2=O)cc1` , please?
Response given: > 100 µM

Challenge: Continue with `COC(=O)c1ccc(Cn2c(=O)c(C)c3sc(C(=O)NCc4ccc(F)cc4)cn3c2=O)cc1C`
Response given: > 100 µM

Challenge: Now consider `COC(=O)c1nc(Cn2c(=O)c(C)c3sc(C(=O)NCc4ccc(F)cc4)cn3c2=O)ncc1OC` .
Response given: > 30 µM

Challenge: Same again, this time with `Cc1c(=O)n(Cc2ccc(C(=O)OCCN(C)C)cc2)c(=O)n2cc(C(=O)NCc3ccc(F)cc3)sc12`
Response given: > 100 µM
